assay: Binding affinity to VDR in scrambled siRNA-transfected human MCF7 cells assessed as cell growth inhibition by measuring reduction in BrdU incorporation after 16 hrs by ELISA
pIC50: −log10 of the molar value.
Each record here notes measured pIC50.

- MOLECULE: "CCn1c(C(=O)N[C@@H](C)CO)ccc1C(CC)(CC)c1ccc(OCC(O)C(C)(C)C)c(C)c1 (stereo partly drawn)"
  pIC50: 5.37
- MOLECULE: "CCN(CC)CCNC(=O)c1ccc(C(CC)(CC)c2ccc(OCSC)c(C)c2)n1CC"
  pIC50: 6.01
- MOLECULE: "CCN(CC)CCNC(=O)c1cc(C(CC)(CC)c2ccc(OCS(=O)(=O)c3ccccc3)c(C)c2)cn1CC"
  pIC50: 6.19
